- target or test system: T1, human gamma common chain expressed on CHO cells (human, UniProt P31785 23-369)
- T1 construct: whole, on cells; Control protein; also called human IL-2R-γ common subunit; human gamma (γ) common chain
- T1 sequence (looked up): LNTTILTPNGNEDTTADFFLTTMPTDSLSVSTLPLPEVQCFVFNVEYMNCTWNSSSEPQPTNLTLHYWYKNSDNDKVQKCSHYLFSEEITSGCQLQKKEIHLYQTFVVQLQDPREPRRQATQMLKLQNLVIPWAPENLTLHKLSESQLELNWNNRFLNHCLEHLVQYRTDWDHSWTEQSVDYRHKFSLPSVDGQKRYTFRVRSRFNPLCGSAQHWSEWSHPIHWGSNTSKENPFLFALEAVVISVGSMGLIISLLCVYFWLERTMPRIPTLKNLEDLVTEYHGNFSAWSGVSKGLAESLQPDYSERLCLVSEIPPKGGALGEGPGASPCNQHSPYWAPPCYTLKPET
- assay info: cell ELISA on transfected CHO cells, 13 nM IgG
Give A450 at 13 nM Ab in cell ELISA for every item shown.
Remember to follow the number with its unit.

query: Can you look up the measured A450 at 13 nM Ab in cell ELISA of AbR (antibody, human IgG1, V domains shown, Purified form: human IgG1 double-mutant (L234A, G237A); Framework limits derived; also called VH3/VL18; VH3DM/VL18) VH: QVQLQESGPGLVKPSETLSLTCAVSGYSISSGYYWGWIRQPPGKGLEWIGSISHTGNTYYNPPLKSRVTISVDTSKNQFSLKLSSVTAADTAVYYCARFMGFGRPEYWGQGTLVTVSS VL: SSELTQDPAVSVALGQTVRITCQGDSLRTYYASWYQQKPGQAPVLVIYGKHKRPSGIPDRFSGSSSGNTASLTITGAQAEDEADYYCVTRSVKGNPHVLFGGGTQLTVL for me?
result: 0.109 A450

query: Input AbB (antibody, human IgG1, V domains shown, Full-length human IgG1 / human lambda, transient, conditioned medium; Framework limits derived; also called VHP/VL3) VH: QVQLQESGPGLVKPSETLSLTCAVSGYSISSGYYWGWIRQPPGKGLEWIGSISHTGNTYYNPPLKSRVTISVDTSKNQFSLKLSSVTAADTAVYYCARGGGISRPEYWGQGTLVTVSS VL: SSELTQDPAVSVALGQTVRITCQGDSLRTYYASWYQQKPGQAPVLVIYGKHKRPSGIPDRFSGSSSGNTASLTITGAQAEDEADYYCVSRAVVGNPHVLFGGGTQLTVL
result: 0.107 A450

query: Also check AbN (antibody, human IgG1, V domains shown, Full-length human IgG1 / human lambda, transient, conditioned medium; Framework limits derived; also called VH6/VL24) VH: QVQLQESGPGLVKPSETLSLTCAVSGYSISSGYYWGWIRQPPGKGLEWIGSISHTGNTYYNPPLKSRVTISVDTSKNQFSLKLSSVTAADTAVYYCARFFGFGRPEYWGQGTLVTVSS VL: SSELTQDPAVSVALGQTVRITCQGDSLRTYYASWYQQKPGQAPVLVIYGKHKRPSGIPDRFSGSSSGNTASLTITGAQAEDEADYYCIARSNKGNPHVLFGGGTQLTVL
result: 0.136 A450

query: Same read-out for AbC (antibody, human IgG1, V domains shown, Full-length human IgG1 / human lambda, transient, conditioned medium; Framework limits derived; also called VHP/VL11) VH: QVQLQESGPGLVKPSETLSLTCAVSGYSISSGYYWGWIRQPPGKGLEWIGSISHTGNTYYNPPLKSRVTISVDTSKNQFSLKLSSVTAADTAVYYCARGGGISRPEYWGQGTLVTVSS VL: SSELTQDPAVSVALGQTVRITCQGDSLRTYYASWYQQKPGQAPVLVIYGKHKRPSGIPDRFSGSSSGNTASLTITGAQAEDEADYYCSSRSRHGNPHVLFGGGTQLTVL ?
result: 0.137 A450

query: What do you get for AbJ (antibody, human IgG1, V domains shown, Full-length human IgG1 / human lambda, transient, conditioned medium; Framework limits derived; also called VH3/VLP) VH: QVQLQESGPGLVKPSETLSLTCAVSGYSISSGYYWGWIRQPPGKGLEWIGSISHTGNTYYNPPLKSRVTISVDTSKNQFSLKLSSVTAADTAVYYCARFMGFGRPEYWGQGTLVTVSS VL: SSELTQDPAVSVALGQTVRITCQGDSLRTYYASWYQQKPGQAPVLVIYGKHKRPSGIPDRFSGSSSGNTASLTITGAQAEDEADYYCNSRDSSGNPHVLFGGGTQLTVL ?
result: 0.126 A450

query: Then what about the binder AbU (antibody, human IgG1, V domains shown, Human IgG1 triple-mutant (L234A, L235A, G237A); Framework limits derived; also called VHP/VL25; VHPTM/VL25) VH: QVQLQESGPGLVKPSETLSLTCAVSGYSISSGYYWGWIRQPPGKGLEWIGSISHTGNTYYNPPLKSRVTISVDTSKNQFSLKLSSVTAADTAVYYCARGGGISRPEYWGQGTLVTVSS VL: SSELTQDPAVSVALGQTVRITCQGDSLRTYYASWYQQKPGQAPVLVIYGKHKRPSGIPDRFSGSSSGNTASLTITGAQAEDEADYYCTTRSNKGNPHVLFGGGTQLTVL ?
result: 0.104 A450

query: Next binder up: AbG (antibody, human IgG1, V domains shown, Full-length human IgG1 / human lambda, transient, conditioned medium; Framework limits derived; also called VHP/VL18) VH: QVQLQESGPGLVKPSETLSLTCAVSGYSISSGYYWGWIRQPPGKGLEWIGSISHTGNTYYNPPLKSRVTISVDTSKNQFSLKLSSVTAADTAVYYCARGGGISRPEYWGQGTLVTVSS VL: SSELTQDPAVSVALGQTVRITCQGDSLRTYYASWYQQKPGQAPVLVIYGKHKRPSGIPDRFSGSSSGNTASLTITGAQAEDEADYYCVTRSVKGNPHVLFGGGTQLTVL
result: 0.108 A450

query: Then this binder: AbT (antibody, human IgG1, V domains shown, Human IgG1 triple-mutant (L234A, L235A, G237A); Framework limits derived; also called VHP/VL9; VHPTM/VL9) VH: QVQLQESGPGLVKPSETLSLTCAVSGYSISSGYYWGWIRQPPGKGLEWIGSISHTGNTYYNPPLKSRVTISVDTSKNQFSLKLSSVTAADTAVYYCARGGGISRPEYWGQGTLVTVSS VL: SSELTQDPAVSVALGQTVRITCQGDSLRTYYASWYQQKPGQAPVLVIYGKHKRPSGIPDRFSGSSSGNTASLTITGAQAEDEADYYCVARSNKGNPHVLFGGGTQLTVL
result: 0.102 A450

query: Also check AbI (antibody, human IgG1, V domains shown, Full-length human IgG1 / human lambda, transient, conditioned medium; Framework limits derived; also called VHP/VL24) VH: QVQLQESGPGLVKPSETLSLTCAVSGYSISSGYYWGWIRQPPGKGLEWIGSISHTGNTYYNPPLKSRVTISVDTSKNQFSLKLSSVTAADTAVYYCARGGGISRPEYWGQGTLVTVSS VL: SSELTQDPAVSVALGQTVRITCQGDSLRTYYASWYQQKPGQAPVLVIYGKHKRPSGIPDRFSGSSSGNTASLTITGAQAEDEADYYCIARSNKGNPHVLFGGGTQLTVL
result: 0.107 A450

query: Record: AbO (antibody, human IgG1, V domains shown, Human IgG1 triple-mutant (L234A, L235A, G237A); Framework limits derived; also called VHP/VL16; VHPTM/VL16) VH: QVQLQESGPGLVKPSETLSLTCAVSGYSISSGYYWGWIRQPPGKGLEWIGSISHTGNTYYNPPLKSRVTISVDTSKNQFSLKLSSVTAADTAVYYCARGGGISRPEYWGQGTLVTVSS VL: SSELTQDPAVSVALGQTVRITCQGDSLRTYYASWYQQKPGQAPVLVIYGKHKRPSGIPDRFSGSSSGNTASLTITGAQAEDEADYYCVTRSAKGNPHVLFGGGTQLTVL
result: 0.108 A450

query: Next: AbK (antibody, human IgG1, V domains shown, Full-length human IgG1 / human lambda, transient, conditioned medium; Framework limits derived; also called VH3/VL3) VH: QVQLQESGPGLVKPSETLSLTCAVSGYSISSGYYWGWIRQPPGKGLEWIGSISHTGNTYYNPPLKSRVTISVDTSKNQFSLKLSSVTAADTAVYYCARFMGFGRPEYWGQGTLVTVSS VL: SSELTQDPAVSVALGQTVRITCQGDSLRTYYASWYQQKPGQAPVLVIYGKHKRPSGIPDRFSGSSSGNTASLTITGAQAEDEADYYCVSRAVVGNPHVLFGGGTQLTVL
result: 0.108 A450
